Would you kindly list pKd for each of these binders?
- target.or.system: T1, human IFNAR-1 protein (form not stated) (human, UniProt P17181 28-436, limits assumed)
- T1 construct: bispecific ELISA
- T1 sequence (looked up): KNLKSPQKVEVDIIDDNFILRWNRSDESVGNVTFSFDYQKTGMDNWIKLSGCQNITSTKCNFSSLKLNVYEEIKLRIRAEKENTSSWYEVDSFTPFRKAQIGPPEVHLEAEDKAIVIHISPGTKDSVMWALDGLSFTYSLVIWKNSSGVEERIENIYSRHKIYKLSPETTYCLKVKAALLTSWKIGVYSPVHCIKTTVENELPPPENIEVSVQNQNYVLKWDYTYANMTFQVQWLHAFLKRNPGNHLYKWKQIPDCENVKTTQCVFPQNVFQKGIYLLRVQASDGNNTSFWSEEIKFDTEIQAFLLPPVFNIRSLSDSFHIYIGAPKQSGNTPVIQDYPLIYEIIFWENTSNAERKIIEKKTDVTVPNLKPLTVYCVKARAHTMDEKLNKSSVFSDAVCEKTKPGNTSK
- assay.notes: affinity ranking of expressed humanized 485G10 IgGs (method not named)
Bear in mind: pKd is minus log10 of a mol/L concentration; give just that figure.

Look up pKd: 485G10 humanized VH0 + VL2 (antibody, V domains shown, Humanized IgG expressed in HEK293; also called VH0 + VL2 (485G10)) VH: QVQLVQSGAEVKKPGASVKVSCKASGFNIKDYYIHWVRQAPGQGLEWMGRIDPEDAETKYAPKFQGRVTMTRDTSISTAYMELSRLRSDDTVVYYCARYHGYWALDYWGQGTLVTVSS VL: DIQMTQSPSSLSTSVGDRVTITCKTSQNVGTNVAWYQQKPGKAPKPLIYSTSYRYSGVPSRFSGSGSGTDFTLTISSLQPEDFATYYCHQYFSYPYTFGPGTKVDIK
8.80

Look up pKd: 485G10-H1L2 (antibody, V domains shown, Humanized IgG expressed in HEK293; also called VH1 + VL2 (485G10)) VH: QVQLVQSGAEVKKPGASVKVSCKASGFNIKDYYIHWVRQAPGQGLEWMGRIDPEDAETKYAPKFQGRVTMTADTSISTAYMELSRLRSDDTVVYYCARYHGYWALDYWGQGTLVTVSS VL: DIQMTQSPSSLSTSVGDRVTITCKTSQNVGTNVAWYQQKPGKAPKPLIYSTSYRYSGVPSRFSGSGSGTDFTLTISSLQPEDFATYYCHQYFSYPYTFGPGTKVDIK
9.19

Look up pKd: 485G10 humanized VH2 + VL1 (antibody, V domains shown, Humanized IgG expressed in HEK293; also called VH2 + VL1 (485G10)) VH: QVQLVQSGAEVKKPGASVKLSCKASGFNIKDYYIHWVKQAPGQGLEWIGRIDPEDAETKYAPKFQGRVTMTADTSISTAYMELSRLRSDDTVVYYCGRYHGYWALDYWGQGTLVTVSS VL: DIQMTQSPSSLSASVGDRVTITCKTSQNVGTNVAWFQQKPGKAPKSLIYSTSYRYSGVPSRFSGSGSGTDFTLTISSLQPEDFATYYCHQYFSYPYTFGPGTKVDIK
7.69

Look up pKd: 485G10 humanized VH0 + VL3 (antibody, V domains shown, Humanized IgG expressed in HEK293; also called VH0 + VL3 (485G10)) VH: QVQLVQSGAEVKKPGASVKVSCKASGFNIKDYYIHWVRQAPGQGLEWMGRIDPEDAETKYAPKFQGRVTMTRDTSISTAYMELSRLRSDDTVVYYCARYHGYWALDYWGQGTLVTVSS VL: DIQMTQSPSSLSTSVGDRVTITCKTSQNVGTNVAWYQQKPGKAPKPLIYSTSYRYSGVPSRFSGSGSGTDFTLTISSVQPEDFATYYCHQYFSYPYTFGPGTKLDIK
8.97
